Biological target: SARS-COV-2 RBD extracellular domain expressed with a C-terminal mouse IgG2a Fc (SARS-CoV-2)
Test: Biacore SPR, mAb captured on anti-hFc, 37 C
Listing: koff of selected binders
measurement-type: koff (s⁻¹)

{"binder": "mAb13459 (antibody, V domains shown) VH: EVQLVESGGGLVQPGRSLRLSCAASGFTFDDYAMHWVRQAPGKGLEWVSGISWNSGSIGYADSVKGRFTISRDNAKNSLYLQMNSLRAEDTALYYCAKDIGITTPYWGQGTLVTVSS VL: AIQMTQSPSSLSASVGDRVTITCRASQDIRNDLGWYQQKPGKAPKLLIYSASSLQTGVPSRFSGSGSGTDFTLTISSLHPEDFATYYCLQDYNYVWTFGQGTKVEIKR", "measurement-units": "s⁻¹", "assay-value": "9.24e-05"}
{"binder": "mAb15163 (antibody, V domains shown) VH: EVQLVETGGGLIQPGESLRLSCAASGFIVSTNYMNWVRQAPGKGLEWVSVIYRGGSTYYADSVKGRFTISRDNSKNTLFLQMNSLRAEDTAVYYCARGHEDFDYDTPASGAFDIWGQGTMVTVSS VL: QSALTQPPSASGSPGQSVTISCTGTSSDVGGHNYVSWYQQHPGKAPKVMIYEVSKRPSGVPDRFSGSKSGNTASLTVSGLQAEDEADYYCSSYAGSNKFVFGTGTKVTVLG", "measurement-units": "s⁻¹", "assay-value": "2.5e-05"}
{"binder": "mAb14255 (antibody, V domains shown) VH: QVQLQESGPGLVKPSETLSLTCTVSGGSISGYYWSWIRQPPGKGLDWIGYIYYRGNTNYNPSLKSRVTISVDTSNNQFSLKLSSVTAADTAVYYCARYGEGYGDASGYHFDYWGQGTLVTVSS VL: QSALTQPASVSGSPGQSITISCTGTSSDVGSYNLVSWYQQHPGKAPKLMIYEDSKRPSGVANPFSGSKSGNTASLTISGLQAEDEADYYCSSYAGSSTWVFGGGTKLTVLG", "measurement-units": "s⁻¹", "assay-value": 0.00025}
